Listed molecules paired with reported IC50
# targetOrSystem: butyrylcholinesterase (BChE) (Homo sapiens, UniProt P06276)
# Sequence (P06276 29-602): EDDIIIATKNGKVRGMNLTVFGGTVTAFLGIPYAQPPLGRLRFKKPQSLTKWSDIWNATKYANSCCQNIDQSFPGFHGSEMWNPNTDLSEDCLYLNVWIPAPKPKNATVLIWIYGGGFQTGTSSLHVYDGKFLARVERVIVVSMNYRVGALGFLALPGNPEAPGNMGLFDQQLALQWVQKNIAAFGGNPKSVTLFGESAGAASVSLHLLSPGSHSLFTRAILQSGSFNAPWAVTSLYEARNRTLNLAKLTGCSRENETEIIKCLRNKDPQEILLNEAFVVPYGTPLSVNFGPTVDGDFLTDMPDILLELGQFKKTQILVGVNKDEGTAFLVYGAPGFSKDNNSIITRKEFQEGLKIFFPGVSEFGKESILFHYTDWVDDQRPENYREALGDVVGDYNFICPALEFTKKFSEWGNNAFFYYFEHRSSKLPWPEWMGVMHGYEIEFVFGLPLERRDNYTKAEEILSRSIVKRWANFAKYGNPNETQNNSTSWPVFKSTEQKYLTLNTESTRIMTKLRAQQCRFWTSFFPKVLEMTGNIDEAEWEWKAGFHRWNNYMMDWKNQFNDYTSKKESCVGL
# methodSummary: biochemical
# details: mean ± SD, three independent experiments

molecule: COc1ccc(-c2oc3cc(F)c(I)cc3c(=O)c2O[C@@H]2O[C@H](COC(C)=O)[C@@H](OC(C)=O)[C@H](OC(C)=O)[C@H]2OC(C)=O)cc1
targetOrSystem: butyrylcholinesterase (BChE) (Homo sapiens, UniProt P06276)
endpointUnit: µM
IC50: 19.2
//
molecule: CC(=O)OC[C@H]1O[C@@H](Oc2c(-c3ccc(F)cc3)oc3cc(Br)c(I)cc3c2=O)[C@H](OC(C)=O)[C@@H](OC(C)=O)[C@@H]1OC(C)=O
targetOrSystem: butyrylcholinesterase (BChE) (Homo sapiens, UniProt P06276)
endpointUnit: µM
IC50: 40.9
//
molecule: COc1ccc(-c2oc3cc(Cl)c(I)cc3c(=O)c2O[C@@H]2O[C@H](COC(C)=O)[C@@H](OC(C)=O)[C@H](OC(C)=O)[C@H]2OC(C)=O)cc1
targetOrSystem: butyrylcholinesterase (BChE) (Homo sapiens, UniProt P06276)
endpointUnit: µM
IC50: 10.1
//
molecule: CC(=O)OC[C@H]1O[C@@H](Oc2c(-c3ccc(F)cc3)oc3cc(Cl)c(I)cc3c2=O)[C@H](OC(C)=O)[C@@H](OC(C)=O)[C@@H]1OC(C)=O
targetOrSystem: butyrylcholinesterase (BChE) (Homo sapiens, UniProt P06276)
endpointUnit: µM
IC50: 31.1
//
molecule: CC(=O)OCC1OC(Oc2c(-c3ccccc3)oc3cc(Cl)c(I)cc3c2=O)C(OC(C)=O)C(OC(C)=O)C1OC(C)=O (stereo not drawn)
targetOrSystem: butyrylcholinesterase (BChE) (Homo sapiens, UniProt P06276)
endpointUnit: µM
IC50: 9.03
//
molecule: COc1cc2oc(-c3ccc(Cl)cc3)c(O[C@@H]3O[C@H](COC(C)=O)[C@@H](OC(C)=O)[C@H](OC(C)=O)[C@H]3OC(C)=O)c(=O)c2cc1I
targetOrSystem: butyrylcholinesterase (BChE) (Homo sapiens, UniProt P06276)
endpointUnit: µM
IC50: 36.1

---

# methodSummary: DPPH radical scavenging activity assay
# details: DPPH 0.20 mM in methanol, 45 min in the dark, mean ± SD
pIC50: −log10 of the molar value.
Consider the following molecules and their measured pIC50 readings.

molecule: COc1ccc(-c2oc3cc(OC)c(I)cc3c(=O)c2OC2OC(COC(C)=O)C(OC(C)=O)C(OC(C)=O)C2OC(C)=O)cc1 (stereo not shown)
pIC50: 4.75
//
molecule: CC(=O)OCC1OC(Oc2c(-c3ccc(Cl)cc3)oc3cc(Cl)c(I)cc3c2=O)C(OC(C)=O)C(OC(C)=O)C1OC(C)=O (stereo not shown)
pIC50: 4.88
//
molecule: CC(=O)OCC1OC(Oc2c(-c3ccc(Cl)cc3)oc3cc(Br)c(I)cc3c2=O)C(OC(C)=O)C(OC(C)=O)C1OC(C)=O (stereo not shown)
pIC50: 4.94
//
molecule: O=c1c(O)c(-c2ccc(O)c(O)c2)oc2cc(O)cc(O)c12 [Quercetin, quercetin, reference compound]
pIC50: 5.51
//
molecule: COc1cc2oc(-c3ccc(F)cc3)c(OC3OC(COC(C)=O)C(OC(C)=O)C(OC(C)=O)C3OC(C)=O)c(=O)c2cc1I (stereo not shown)
pIC50: 4.84
//
molecule: O=C1O[C@H]([C@@H](O)CO)C(O)=C1O [Ascorbic acid, ascorbic acid, reference compound]
pIC50: 5.26
//
molecule: COc1ccc(-c2oc3cc(Br)c(I)cc3c(=O)c2OC2OC(COC(C)=O)C(OC(C)=O)C(OC(C)=O)C2OC(C)=O)cc1 (stereo not shown)
pIC50: 4.67
